Provenance of the data: patent US20260327264A1

# remaining at 1 h, 10 µM listing for each entry below
# METHOD_SUMMARY: Peptide stability in simulated intestinal fluid (SIF)
# Format: in vitro ADME
# EXPERIMENTAL_CONDITIONS: pig, simulated intestinal fluid; SIF, 1 h, pH 6.8, pancreatin, 37° C., 10 μM
# Procedure: SGF and SIF were prepared based on the United States Pharmacopeia specifications (Test Solutions, United States Pharmacopeia 35, NF 30, 2012). SGF was prepared by dissolving sodium chloride (0.2 g) in 50 mL of water. A volume of 0.7 mL of 10 M HCl was added to adjust the pH of the solution to 1.2 and the volume made up to 100 mL with water. 64 mg porcine pepsin (P7125, Sigma Aldrich) was gently dissolved into 20 mL preheated (37° C.) solution (3.2 g/L) immediately prior to the incubation. […]
Express it in %; write the number only.

These solved cases illustrate the format of a correct answer.
molecule="CC(C)C[C@]1(C)NC(=O)[C@H](Cc2ccc3ccccc3c2)NC(=O)[C@H](Cc2ccc(OCCN)cc2)NC(=O)[C@@H]2CCNC(=O)CC[C@H](NC(=O)[C@H](CO)NC(=O)Cc3ccc(cc3)CNC(=O)CC[C@@H](C(=O)N[C@@H](CCN)C(=O)N[C@H](Cc3cccnc3)C(N)=O)NC1=O)C(=O)N[C@@H](Cc1c[nH]c3ccccc13)C(=O)N[C@@H](CCC(N)=O)C(=O)N2 [Compound 5]" property_label="remaining at 1 h, 10 µM" result=91
molecule="CCCC[C@H](NC(=O)[C@@H]1CCC(=O)NCc2ccc(cc2)CC(=O)N[C@@H](CO)C(=O)N[C@H]2CCC(=O)NCC[C@H](NC(=O)[C@H](CCC(N)=O)NC(=O)[C@H](Cc3c[nH]c4ccccc34)NC2=O)C(=O)N[C@@H](Cc2ccc(OCCN)cc2)C(=O)N[C@@H](Cc2ccc3ccccc3c2)C(=O)N[C@@](C)(CC(C)C)C(=O)N1)C(=O)N[C@@H](Cc1cccnc1)C(=O)NC [Compound 32]" property_label="remaining at 1 h, 10 µM" result=94

--- query ---
QUERY: If you can, please state the reported remaining at 1 h, 10 µM value of CC(C)C[C@]1(C)NC(=O)[C@H](Cc2ccc3ccccc3c2)NC(=O)[C@H](Cc2ccc(OCCN)cc2)NC(=O)[C@@H]2CCNC(=O)CC[C@H](NC(=O)[C@H](CO)NC(=O)Cc3ccc(cc3)CNC(=O)CC[C@@H](C(=O)N[C@@H](CCN)C(=O)NCCc3cccnc3)NC1=O)C(=O)N[C@@H](Cc1c[nH]c3ccccc13)C(=O)N[C@@H](CCC(N)=O)C(=O)N2 [Compound 7] .
RESULT: 103
